- assay_protocol: Rate of dissolution of model melanin and color of its solutions
- Type: physicochemical, Aspergillus niger
- cond: model melanin
recorded_metric: Time of dissolution (min)

N	5
[Na+].[OH-] [0.01 N sodium hydroxide, sodium hydroxide]	6
FN(F)C1(C(F)(F)F)C(F)(F)C(F)(F)C(F)(F)C(F)(C(F)(F)F)C1(F)F (centres unmarked)	3

1. FC(F)(Br)C(F)(F)Br
2. NCCO
-- ask Returns: the argument ( 1 or 2 ) having the larger Time of dissolution. Your answer should be the label attached to the chosen record.
-- reply 1

###

- assay_protocol: Rate of dissolution of model melanin and color of its solutions
- Type: physicochemical, Aspergillus niger
recorded_metric: pH of the solution
# answer = number (no unit)

OO [4% solution of HP, hydrogen peroxide]	3.5
FC1(F)C(F)(F)C(F)(F)C2(F)C(F)(F)C(F)(F)C(F)(F)C(F)(F)C2(F)C1(F)F (stereo not drawn)	7

Read the next record carefully.
-- ask Any idea what its pH of the solution is? The compound is FN(F)C1(C(F)(F)F)C(F)(F)C(F)(F)C(F)(F)C(F)(C(F)(F)F)C1(F)F (stereo not drawn)
-- reply 7
